tested on: Pseudomonas aeruginosa; experiment: Antibacterial activity against Pseudomonas aeruginosa KCTC 1637 after 24 hrs; format: functional; settings: KCTC 1637, 24 h
readout: MIC (µM)
Hi! Could you send only the number? It should be in µM, unit omitted.

Specify measured MIC for CC[C@H](C)[C@H](NC(=O)[C@H](CCCNC(=N)N)NC(=O)[C@@H](N)CCCCN)C(=O)N[C@H](C(=O)N[C@@H](CCCCN)C(=O)N[C@@H](CC(C)C)C(=O)N[C@H](CC(C)C)C(=O)N[C@@H](CC(C)C)C(=O)N[C@@H](CCCCN)C(=O)N[C@@H](Cc1c[nH]c2ccccc12)C(=O)N[C@@H](CC(C)C)C(=O)N[C@@H](CCCNC(=N)N)C(N)=O)C(C)C .
8

Item CC[C@H](C)[C@H](NC(=O)[C@H](CC(C)C)NC(=O)[C@@H](CCCCN)NC(=O)[C@@H](NC(=O)[C@@H](NC(=O)[C@H](CCCNC(=N)N)NC(=O)[C@@H](N)CCCCN)[C@@H](C)CC)C(C)C)C(=O)N[C@@H](CC(C)C)C(=O)N[C@@H](CCCCN)C(=O)N[C@@H](Cc1c[nH]c2ccccc12)C(=O)N[C@@H](CC(C)C)C(=O)N[C@@H](CCCNC(=N)N)C(N)=O : provide MIC
8

Give reported MIC value for CC[C@H](C)[C@H](NC(=O)[C@H](CC(C)C)NC(=O)[C@H](CCCCN)NC(=O)[C@@H](NC(=O)[C@@H](NC(=O)[C@H](CCCNC(=N)N)NC(=O)[C@@H](N)CCCCN)[C@@H](C)CC)C(C)C)C(=O)N[C@@H](CC(C)C)C(=O)N[C@@H](CCCCN)C(=O)N[C@@H](Cc1c[nH]c2ccccc12)C(=O)N[C@@H](CC(C)C)C(=O)N[C@@H](CCCNC(=N)N)C(N)=O
8

Answer with the recorded MIC for the molecule listed here: CC[C@H](C)[C@H](NC(=O)[C@H](CCCNC(=N)N)NC(=O)[C@@H](N)CCCCN)C(=O)N[C@H](C(=O)N[C@@H](CCCCN)C(=O)N[C@H](CC(C)C)C(=O)N[C@H](C(=O)N[C@@H](CC(C)C)C(=O)N[C@@H](CCCCN)C(=O)N[C@@H](Cc1c[nH]c2ccccc12)C(=O)N[C@@H](CC(C)C)C(=O)N[C@@H](CCCNC(=N)N)C(N)=O)[C@@H](C)CC)C(C)C
4

---

system: Staphylococcus aureus; test: Antibacterial activity against Staphylococcus aureus KCTC 1621 after 24 hrs; type: functional; conditions: KCTC 1621, 24 h
The entries below come with measured MIC values attached.
All answers are understood in µM, so give the number only.

Determine from records and report MIC for CC[C@H](C)[C@H](NC(=O)[C@H](CCCNC(=N)N)NC(=O)[C@@H](N)CCCCN)C(=O)N[C@H](C(=O)N[C@@H](CCCCN)C(=O)N[C@@H](CC(C)C)C(=O)N[C@H](CC(C)C)C(=O)N[C@@H](CC(C)C)C(=O)N[C@@H](CCCCN)C(=O)N[C@@H](Cc1c[nH]c2ccccc12)C(=O)N[C@@H](CC(C)C)C(=O)N[C@@H](CCCNC(=N)N)C(N)=O)C(C)C
2

For the compound CC[C@H](C)[C@H](NC(=O)[C@H](CC(C)C)NC(=O)[C@H](CCCCN)NC(=O)[C@@H](NC(=O)[C@@H](NC(=O)[C@H](CCCNC(=N)N)NC(=O)[C@@H](N)CCCCN)[C@@H](C)CC)C(C)C)C(=O)N[C@@H](CC(C)C)C(=O)N[C@@H](CCCCN)C(=O)N[C@@H](Cc1c[nH]c2ccccc12)C(=O)N[C@@H](CC(C)C)C(=O)N[C@@H](CCCNC(=N)N)C(N)=O , give its reported MIC.
4

Answer with the recorded MIC for the compound listed here: CC[C@H](C)[C@H](NC(=O)[C@H](CC(C)C)NC(=O)[C@@H](CCCCN)NC(=O)[C@@H](NC(=O)[C@@H](NC(=O)[C@H](CCCNC(=N)N)NC(=O)[C@@H](N)CCCCN)[C@@H](C)CC)C(C)C)C(=O)N[C@@H](CC(C)C)C(=O)N[C@@H](CCCCN)C(=O)N[C@@H](Cc1c[nH]c2ccccc12)C(=O)N[C@@H](CC(C)C)C(=O)N[C@@H](CCCNC(=N)N)C(N)=O
2

In one line, give reported MIC of the entry CC[C@H](C)[C@H](NC(=O)[C@H](CCCNC(=N)N)NC(=O)[C@@H](N)CCCCN)C(=O)N[C@H](C(=O)N[C@@H](CCCCN)C(=O)N[C@H](CC(C)C)C(=O)N[C@H](C(=O)N[C@@H](CC(C)C)C(=O)N[C@@H](CCCCN)C(=O)N[C@@H](Cc1c[nH]c2ccccc12)C(=O)N[C@@H](CC(C)C)C(=O)N[C@@H](CCCNC(=N)N)C(N)=O)[C@@H](C)CC)C(C)C .
2

---

selectivity ratio values for the compounds below.
test: Therapeutic index, ratio of MHC10 for human RBC to MIC for Escherichia coli KCTC 1682; type: toxicity; settings: red blood cells (RBC), pooled result: one value given for 6 cell lines, strains, targets or settings, read-out: TI
Number, no unit, nothing else.

Examples with answers:
1. CC[C@H](C)[C@H](NC(=O)[C@H](CC(C)C)NC(=O)[C@@H](CCCCN)NC(=O)[C@@H](NC(=O)[C@@H](NC(=O)[C@H](CCCNC(=N)N)NC(=O)[C@@H](N)CCCCN)[C@@H](C)CC)C(C)C)C(=O)N[C@@H](CC(C)C)C(=O)N[C@@H](CCCCN)C(=O)N[C@@H](Cc1c[nH]c2ccccc12)C(=O)N[C@@H](CC(C)C)C(=O)N[C@@H](CCCNC(=N)N)C(N)=O | 16.8
2. CC[C@H](C)[C@H](NC(=O)[C@H](CCCNC(=N)N)NC(=O)[C@@H](N)CCCCN)C(=O)N[C@H](C(=O)N[C@@H](CCCCN)C(=O)N[C@@H](CC(C)C)C(=O)N[C@H](CC(C)C)C(=O)N[C@@H](CC(C)C)C(=O)N[C@@H](CCCCN)C(=O)N[C@@H](Cc1c[nH]c2ccccc12)C(=O)N[C@@H](CC(C)C)C(=O)N[C@@H](CCCNC(=N)N)C(N)=O)C(C)C | 30
3. CC[C@H](C)[C@H](NC(=O)[C@H](CCCNC(=N)N)NC(=O)[C@@H](N)CCCCN)C(=O)N[C@H](C(=O)N[C@@H](CCCCN)C(=O)N[C@H](CC(C)C)C(=O)N[C@H](C(=O)N[C@@H](CC(C)C)C(=O)N[C@@H](CCCCN)C(=O)N[C@@H](Cc1c[nH]c2ccccc12)C(=O)N[C@@H](CC(C)C)C(=O)N[C@@H](CCCNC(=N)N)C(N)=O)[C@@H](C)CC)C(C)C | 61.2

Return the recorded selectivity ratio value; entry: CC[C@H](C)[C@H](NC(=O)[C@H](CC(C)C)NC(=O)[C@H](CCCCN)NC(=O)[C@@H](NC(=O)[C@@H](NC(=O)[C@H](CCCNC(=N)N)NC(=O)[C@@H](N)CCCCN)[C@@H](C)CC)C(C)C)C(=O)N[C@@H](CC(C)C)C(=O)N[C@@H](CCCCN)C(=O)N[C@@H](Cc1c[nH]c2ccccc12)C(=O)N[C@@H](CC(C)C)C(=O)N[C@@H](CCCNC(=N)N)C(N)=O
4.4

---

system: Pseudomonas aeruginosa; test: Synergistic antibacterial activity against multidrug-resistant Pseudomonas aeruginosa CCARM 2095 after 72 hrs in presence of ciprofloxacin by chequerboard assay; assay type: functional
Listing: fractional inhibitory concentration index (FICI) of selected molecules

1) CC[C@H](C)[C@H](NC(=O)[C@H](CCCNC(=N)N)NC(=O)[C@@H](N)CCCCN)C(=O)N[C@H](C(=O)N[C@@H](CCCCN)C(=O)N[C@H](CC(C)C)C(=O)N[C@H](C(=O)N[C@@H](CC(C)C)C(=O)N[C@@H](CCCCN)C(=O)N[C@@H](Cc1c[nH]c2ccccc12)C(=O)N[C@@H](CC(C)C)C(=O)N[C@@H](CCCNC(=N)N)C(N)=O)[C@@H](C)CC)C(C)C | 0.3125
2) CC[C@H](C)[C@H](NC(=O)[C@H](CCCNC(=N)N)NC(=O)[C@@H](N)CCCCN)C(=O)N[C@H](C(=O)N[C@@H](CCCCN)C(=O)N[C@@H](CC(C)C)C(=O)N[C@H](CC(C)C)C(=O)N[C@@H](CC(C)C)C(=O)N[C@@H](CCCCN)C(=O)N[C@@H](Cc1c[nH]c2ccccc12)C(=O)N[C@@H](CC(C)C)C(=O)N[C@@H](CCCNC(=N)N)C(N)=O)C(C)C | 0.3125

Attention now shifts to the item below.
Return reported fractional inhibitory concentration index (FICI). Input molecule: CC[C@H](C)[C@H](NC(=O)[C@H](CC(C)C)NC(=O)[C@H](CCCCN)NC(=O)[C@@H](NC(=O)[C@@H](NC(=O)[C@H](CCCNC(=N)N)NC(=O)[C@@H](N)CCCCN)[C@@H](C)CC)C(C)C)C(=O)N[C@@H](CC(C)C)C(=O)N[C@@H](CCCCN)C(=O)N[C@@H](Cc1c[nH]c2ccccc12)C(=O)N[C@@H](CC(C)C)C(=O)N[C@@H](CCCNC(=N)N)C(N)=O
0.3125
